Tested on: Ggt
Assay Procedure: In vivo assay: control of Ggt on wheat in 3-inch pots with infested soil, rated after four weeks
Design: species or system Gaeumannomyces graminis var. tritici
Test Parameters: Gaeumannomyces graminis, soil, 672 h, read-out: In vivo(ppm) 0.1, percent disease control
Please go through the items and note down their pest or weed control at 0.1 mg/pot.

Q: Lab note: need pest or weed control at 0.1 mg/pot with Ggt for entry CCNC(=O)c1sc2ccccc2c1[Si](C)(C)C [Example 9] , please look it up.
Result: < 0%

Q: Test system Ggt; read-out pest or weed control at 0.1 mg/pot; what value for CCN(SC)C(=O)c1c([Si](C)(C)C)sc2ccccc12 [Example 16] ?
Result: 87%

Q: Ggt / pest or weed control at 0.1 mg/pot / CCN(CC)C(=O)c1c([Si](C)(C)C)sc2ccccc12 [Example 14] : value?
Result: 76%

Q: Could you share what pest or weed control at 0.1 mg/pot was measured for CCNC(=O)c1c([Si](C)(C)C)ccc2ccsc12 [Example 43] , tested on Ggt?
Result: 79%

Q: Find pest or weed control at 0.1 mg/pot (Ggt) for the entry CCN(CC)C(=O)c1c([Si](C)(C)CI)ccc2ccccc12 [Example 2]
Result: < 0%

Q: Find pest or weed control at 0.1 mg/pot (Ggt) for the entry CCNC(=O)c1c([Si](C)(C)C)cc(F)c2ccccc12 [Example 1]
Result: 18%

Q: # returns recorded pest or weed control at 0.1 mg/pot (system: Ggt) for CCNC(=O)c1cc2ccccc2cc1[Si](C)(C)C [Example 5]
Result: 18%

Q: Param readout= pest or weed control at 0.1 mg/pot; system= Ggt; entry= CCNC(=O)c1c([Si](C)(C)C)ccc2ccccc12 [Example 4] ; returns value.
Result: 85%

Q: Field: pest or weed control at 0.1 mg/pot (Ggt). Entry: CCNC(=O)c1c([Si](C)(C)C)ccc2sccc12 [Example 41]
Result: 99%

Q: Observed pest or weed control at 0.1 mg/pot on Ggt for CCNC(=O)c1c([Si](C)(C)C)ccc2occc12 [Example 42] , please.
Result: 87%

###

Test system: Gaeumannomyces graminis var. tritici (Ggt)
Assay Procedure: In vitro assay: mycelial growth on minimal media agar plates (Percent Inhibition; IC50)
Type: cell-based
Test Parameters: 1 ppm in agar, 19 - 20 °C, 4 to 5 days, read-out: In vitro(ppm) 1, Percent Inhibition
Measure Name: inhibition at 1 ppm (%)
Kindly answer with a numeric value in %, unit omitted.

Q: Return reported inhibition at 1 ppm; argument: `CCCNC(=O)c1c(OC(CC)(CC)CC)ccc2ccccc12`
Result: 95

Q: Fill blank: measured inhibition at 1 ppm of the molecule `CCCNC(=O)c1c(NC(C)(C)C)ccc2ccccc12` is ____.
Result: 97

Q: If you can, please state the reported inhibition at 1 ppm value of `CCCNC(=O)c1c(OC2(C)CCCCC2)ccc2ccccc12` .
Result: 83

Q: Record request: inhibition at 1 ppm value, item `CCNC(=O)c1c(OC(C)(C)CC)ccc2ccccc12`
Result: 95

###

Tested on: Gaeumannomyces graminis var. tritici (Ggt)
Assay Procedure: In vitro assay: mycelial growth on minimal media agar plates (Percent Inhibition; IC50)
Assay type: cell-based
Test Parameters: read-out: In vitro(ppm) 0.1, Percent Inhibition
Lab note: anything with inhibition at 0.1 ppm at or over 40% counts as TRUE; the rest go in FALSE.

Q: Say whether `CCNC(=O)c1c([Si](C)(C)C)n(C)c2ccccc12` shows inhibition at 0.1 ppm of 40% or more.
Result: FALSE

Q: Does inhibition at 0.1 ppm meet or surpass 40% for `CCNC(=O)C1=C([Si](C)(C)C)S(=O)(=O)c2ccccc21` ?
Result: FALSE

Q: Does the reported inhibition at 0.1 ppm for `CCN(CC)C(=O)c1c([Si](C)(C)CI)ccc2ccccc12` fall at or above the 40% mark?
Result: FALSE

Q: Entry `CCN(CC)C(=O)c1c([Si](C)(C)C)sc2ccccc12` : is its inhibition at 0.1 ppm no less than 40%?
Result: TRUE

Q: Entry `CCNC(=O)c1cc2ccccc2cc1[Si](C)(C)C` : is its inhibition at 0.1 ppm no less than 40%?
Result: FALSE

Q: Form field: inhibition at 0.1 ppm at least 40%? Entry: `CCNC(=O)c1oc2ccccc2c1[Si](C)(C)C`
Result: FALSE

Q: Test whether the compound `CC(C)(C)Nc1ccc2ccccc2c1C(=O)NCCBr` records inhibition at 0.1 ppm of 40% or higher.
Result: FALSE

Q: Please indicate if the recorded inhibition at 0.1 ppm for `CCNC(=O)c1c([Si](C)(C)C)oc2ccccc12` meets or exceeds 40%.
Result: TRUE

Q: # bool: inhibition at 0.1 ppm of `CCN(CC)C(=O)c1c([Si](C)(C)C)ccc2ccccc12` >= 40%
Result: FALSE

Q: Could you verify whether the entry `CCNC(=O)c1sc2ccccc2c1[Si](C)(C)C` shows inhibition at 0.1 ppm of no less than 40%?
Result: FALSE

Q: Identify whether the reported inhibition at 0.1 ppm of the following compound is 40% or greater: `CCNC(=O)c1c([Si](C)(C)C)ccc2ccoc12`
Result: TRUE

Q: Exam item: decide whether the reported inhibition at 0.1 ppm for `C=CCNC(=O)c1c([Si](C)(C)C)sc2ccccc12` is at least 40%.
Result: TRUE

Q: Can `CCNC(=O)c1c([Si](C)(C)C)cc(F)c2ccccc12` be said to have inhibition at 0.1 ppm at or above 40%?
Result: FALSE

Q: Does `CCN(SC)C(=O)c1c([Si](C)(C)C)sc2ccccc12` have a reported inhibition at 0.1 ppm of at least 40%?
Result: TRUE

Q: Hello, I need to know if `CCNC(=O)n1c([Si](C)(C)C)cc2ccccc21` has measured inhibition at 0.1 ppm not below 40%. Thanks!
Result: TRUE
